compounds and their reported IC50
Test system: Vero E6 non-tumorigenic epithelial kidney cells
testMethodNotes: Antiproliferative assay (crystal violet)
Type: cell-based, African green monkey
experimentalConditions: 72 h exposure; ± standard deviation, n = 2–4; read-out: IC50, antiproliferative effects, Vero E6

CCn1[c]([Au-][Cl])[n+](CC)c2cc(C(=O)O)ccc21 [Compound 1b]
> 100 µM
Cc1ncc([N+](=O)[O-])n1CCOC(=O)Cn1[c](=[Au][Cl])n(C)c2ccccc21 [Compound 2c]
> 95 µM
CCn1[c](=[Au][Cl])n(CC)c2cc(C(=O)OCCn3c([N+](=O)[O-])cnc3C)ccc21 [Compound 1c]
> 100 µM
CC(=O)OC[C@H]1O[C@@H]([S-])[C@H](OC(C)=O)[C@@H](OC(C)=O)[C@@H]1OC(C)=O.CCP(CC)CC.[Au+] [Auranofin, reference compound]
2.6 µM
CCOC(=O)Cn1[c]([Au-][Cl])[n+](C)c2ccccc21 [Compound 2a]
25.8 µM

Now for another entry.
Ask: IC50 lookup needed for Cn1[c](=[Au][Cl])n(CC(=O)O)c2ccccc21 [Compound 2b] , thanks.
Result: > 100 µM

====

Tested on: MDA-MB-231 breast cancer cells
testMethodNotes: Antiproliferative assay (crystal violet)
Type: cell-based, human
experimentalConditions: Homo sapiens, MDA-MB-231; 96 h exposure; ± standard deviation, n = 2–4; read-out: IC50, antiproliferative effects, MDA-MB-231
Procedure: The antiproliferative effects were determined according to a previously published procedure. A volume of 100 µL of cell suspension of A549 cells, MDA-MB-231, HT-29 or Vero E6 cells was transferred into the wells of a 96-well plates and incubated at 37 °C under 5% CO2 for 72 h. […] The results were calculated as the mean values of three independent experiments, unless stated otherwise.
pIC50: −log10 of the molar value.
measuredQuantity: pIC50

Ask: pIC50 lookup needed for Cc1ncc([N+](=O)[O-])n1CCO [Metronidazole, reference compound] , thanks.
Result: < 4.00

====

compounds and their reported pIC50
systemTested: bacterial TrxR from E. coli (Escherichia coli, UniProt P0A9P4)
Sequence (P0A9P4 whole entry): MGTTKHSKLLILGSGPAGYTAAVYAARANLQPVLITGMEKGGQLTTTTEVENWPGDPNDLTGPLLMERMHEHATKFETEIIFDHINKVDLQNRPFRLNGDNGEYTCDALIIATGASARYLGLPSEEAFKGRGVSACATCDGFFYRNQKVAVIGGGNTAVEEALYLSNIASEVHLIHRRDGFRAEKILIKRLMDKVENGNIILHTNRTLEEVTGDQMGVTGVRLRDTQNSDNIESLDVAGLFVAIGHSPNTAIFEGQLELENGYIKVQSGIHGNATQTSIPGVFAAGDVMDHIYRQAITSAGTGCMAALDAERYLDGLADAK
Give only the number. pIC50 is defined as minus log10 of concentration in molar units.

CCn1[c](=[Au][Cl])n(CC)c2cc(C(=O)OCCn3c([N+](=O)[O-])cnc3C)ccc21
6.84

Ask: pIC50 lookup needed for Cc1ncc([N+](=O)[O-])n1CCOC(=O)Cn1[c](=[Au][Cl])n(C)c2ccccc21 , thanks.
Result: 6.76

Ask: pIC50 lookup needed for Cn1[c](=[Au][Cl])n(CC(=O)O)c2ccccc21 , thanks.
Result: 6.44

Ask: pIC50 lookup needed for CCn1[c]([Au-][Cl])[n+](CC)c2cc(C(=O)O)ccc21 , thanks.
Result: 6.53

Ask: pIC50 lookup needed for CC(=O)OC[C@H]1O[C@@H]([S-])[C@H](OC(C)=O)[C@@H](OC(C)=O)[C@@H]1OC(C)=O.CCP(CC)CC.[Au+] [Auranofin, reference compound] , thanks.
Result: 6.68

====

Test system: Acinetobacter baumannii (DSM 30007, ATCC 19606)
testMethodNotes: MIC broth dilution, aerobic bacteria
Type: cell-based
experimentalConditions: 20 h at 37 °C, ± standard error, n ≥ 3
compounds and their reported MIC

Ask: Param readout= MIC; system= Acinetobacter baumannii (DSM 30007, ATCC 19606); entry= CCn1[c]([Au-][Cl])[n+](CC)c2cc(C(=O)O)ccc21 [Compound 1b] ; returns value.
Result: > 142.0 µM

Ask: Param readout= MIC; system= Acinetobacter baumannii (DSM 30007, ATCC 19606); entry= Cc1ncc([N+](=O)[O-])n1CCOC(=O)Cn1[c](=[Au][Cl])n(C)c2ccccc21 [Compound 2c] ; returns value.
Result: > 111.2 µM

Ask: Param readout= MIC; system= Acinetobacter baumannii (DSM 30007, ATCC 19606); entry= Cn1[c](=[Au][Cl])n(CC(=O)O)c2ccccc21 [Compound 2b] ; returns value.
Result: > 151.4 µM

Ask: Param readout= MIC; system= Acinetobacter baumannii (DSM 30007, ATCC 19606); entry= CCn1[c](=[Au][Cl])n(CC)c2cc(C(=O)OCCn3c([N+](=O)[O-])cnc3C)ccc21 [Compound 1c] ; returns value.
Result: > 106.0 µM
